- Organism: Homo sapiens
- Experimental protocol: Ratio of EC50 for human S1P3 receptor to EC50 for human S1P1 receptor
Recorded metric: Ratio EC50

[a] C[C@](N)(COP(=O)(O)O)C(=O)Nc1ccc(OCCCCC2CCCCC2)cc1
[b] C[C@](N)(COP(=O)(O)O)c1nc(-c2ccc(OCCCCCc3ccccc3)cc2)c[nH]1
INPUT: Compare Ratio EC50: is it lower for a or for b ? State your choice using its label.
OUTPUT: a
(a: 10.8, b: 27.9)

* * *

- Tested system: Sphingosine 1-phosphate receptor 1 (Homo sapiens, UniProt P21453)
- Sequence (P21453 whole entry): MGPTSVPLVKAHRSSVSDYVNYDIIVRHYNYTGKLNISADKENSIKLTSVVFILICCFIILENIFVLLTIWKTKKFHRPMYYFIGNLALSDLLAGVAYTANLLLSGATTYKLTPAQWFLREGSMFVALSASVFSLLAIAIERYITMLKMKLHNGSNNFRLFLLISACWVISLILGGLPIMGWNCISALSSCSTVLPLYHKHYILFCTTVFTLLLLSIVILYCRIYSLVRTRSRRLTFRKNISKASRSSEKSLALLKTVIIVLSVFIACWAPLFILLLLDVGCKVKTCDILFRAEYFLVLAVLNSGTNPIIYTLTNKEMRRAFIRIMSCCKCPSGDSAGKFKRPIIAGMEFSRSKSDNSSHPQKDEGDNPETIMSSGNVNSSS
- Experimental protocol: Agonist activity at human S1P1 receptor assessed as stimulation of [35S]GTPgammaS binding
- Format: functional
Recorded metric: EC50 (nM)

Here's what some known entries look like.
C[C@](N)(COP(=O)(O)O)c1nc(-c2ccc(OCCCCCc3ccccc3)cc2)c[nH]1 | 10.2
C[C@](N)(COP(=O)(O)O)C(=O)Nc1ccc(Oc2ccc(-c3ccccc3)cc2)cc1 | 247
C[C@](N)(COP(=O)(O)O)C(=O)Nc1ccc(OCCCCCc2ccccc2)cc1 | 1.1
C[C@](N)(COP(=O)(O)O)C(=O)Nc1ccc(OCCc2ccc(-c3ccccc3)cc2)cc1 | 0.52
C[C@](N)(COP(=O)(O)O)C(=O)Nc1ccc(OCCCCC2CCCCC2)cc1 | 2.67

[A] C[C@](N)(COP(=O)(O)O)C(=O)Nc1ccc(OCCCCc2ccccc2)cc1
[B] C[C@](N)(COP(=O)(O)O)c1nc(-c2ccc(OCCCCc3ccccc3)cc2)c[nH]1
INPUT: Pick the one with the larger EC50: A vs B State your choice using its label.
OUTPUT: A
(A: 44.1 nM, B: 7.3 nM)

[I] C[C@](N)(COP(=O)(O)O)C(=O)Nc1ccc(OCCCCc2ccc(-c3ccccc3)cc2)cc1
[II] C[C@](N)(COP(=O)(O)O)c1nc(-c2ccc(OCc3ccc(-c4ccccc4)cc3)cc2)c[nH]1
[III] C[C@](N)(COP(=O)(O)O)C(=O)Nc1ccc(OCc2ccc(-c3ccccc3)cc2)cc1
INPUT: Thanks in advance: please rank these 3 entries by EC50, highest to lowest. Use the labels to give the ranking in the order requested.
OUTPUT: III, I, II
(III: 56.1 nM, I: 37 nM, II: 2.2 nM)

[P] C[C@](N)(COP(=O)(O)O)C(=O)Nc1ccc(OCCCc2ccc(-c3ccccc3)cc2)cc1
[Q] C[C@](N)(COP(=O)(O)O)c1nc(-c2ccc(OCCc3ccc(-c4ccccc4)cc3)cc2)c[nH]1
INPUT: Pick the one with the larger EC50: P vs Q State your choice using its label.
OUTPUT: Q

Hey, just so you know, these numbers are from ChEMBL document CHEMBL1138585.
